# TEST TARGET: T1, CD27 expressed on the cell surface (HT1080_CD27 cells) (human, UniProt P26842 20-260); also: test concentration or dose not given here
# T1 sequence (looked up): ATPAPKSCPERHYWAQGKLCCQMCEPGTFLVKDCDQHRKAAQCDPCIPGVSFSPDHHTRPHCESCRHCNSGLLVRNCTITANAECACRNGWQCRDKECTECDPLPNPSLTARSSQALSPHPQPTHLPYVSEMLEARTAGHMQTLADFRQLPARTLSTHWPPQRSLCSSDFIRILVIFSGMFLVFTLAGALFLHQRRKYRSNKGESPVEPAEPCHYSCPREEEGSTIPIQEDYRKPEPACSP
# ASSAY METHOD TEXT: cell-based or functional assay
Measured IL-8, cross-linked by F(ab')2 fragment [abs. corr.] values are reported for all entries that follow.
Response body: numeric value in abs. corr., unit text excluded.

BINDER: P018.S.07.A.A05 (antibody, V domains shown, V regions on human Ig constant parts; also called AB27_114) VH: QEHLEESGGDLVKPGASLTLTCKASGFDLSINVMCWVRQAPGKGPEWIVCIDNGDGSTYYASWVNGRFTISKTSSTTVTLQMTSLTAADTATYFCARPGTFTYGGNTYPGSFVLWGPGTLVTVSS VL: AFELTQTPSSVEAAVGGTVTINCQASQSISNALAWYQQKPGQPPKLLIYTASNLASGVPSRFKGSGSGTQFTLTISDLESADAATYYCQNYYVNIIGIGFGGGTEVVVK
SCALE UNIT: abs. corr.
QUANTITATIVE RESULT: 1.03

Shift focus to the following entry.
Task: Find the recorded IL-8, cross-linked by F(ab')2 fragment [abs. corr.] belonging to P018.S.04.A.D02 (antibody, V domains shown, V regions on human Ig constant parts; also called AB27_71) VH: QSLEESGGRLVTPGTPLTLTCTASGFSLSTYAMGWVRQAPGEGLEWIGNINTDSGDTWYARWAKGRFTISTTSSTTVDLKITSPTIEDTATYFCARNPGDDVNLWGQGTLVTVSS VL: AQVLTQTPSPVSAAVGDTVTINCQASQSVYNNNDLAWFQQKPGQPPKLLIYRTSILASGVPSRFKGSGSGTQFTLTISDLESDDAATYYCQGYYSGVIYVFGGGTEVVVK and report it.
Result: 1.35
